target: OR7A10 (Homo sapiens); details: stereoisomer not certain
Measurement type: odorant receptor agonist call

Below, 9 compounds whose answers are already recorded.
[[record]]
compound = "CC1=NC(C)C(C)S1 (stereo not given)"
result = "inactive"

[[record]]
compound = "Cc1cnc(C)c(C)n1"
result = "inactive"

[[record]]
compound = "CCCCCC(=O)C(C)C(C)=O (stereo not given)"
result = "inactive"

[[record]]
compound = "CC(CO)CS (stereo not given)"
result = "inactive"

[[record]]
compound = "CC1=C(O)C(=O)OC1C (stereo not given)"
result = "inactive"

[[record]]
compound = "CCCCCCC=CCCC=O"
result = "inactive"

[[record]]
compound = "CC1CCCCCCCCCCCCC(=O)C1 (stereo not given)"
result = "inactive"

[[record]]
compound = "CC1=C(O)C(=O)C(C)O1 (stereo not given)"
result = "inactive"

[[record]]
compound = "CCCC(S)CCOC(C)=O (stereo not given)"
result = "inactive"


## Input Returns the measured odorant receptor agonist call for the input compound. Input: CCCCC(S)C(C)CO (stereo not given)
## Output inactive
